The measured values listed here are drawn from patent US8030354B2.

# TARGET SYSTEM: GPR40 (Homo sapiens)
# ASSAY PROCEDURE: Cell-based aequorin assay (CHO cells stably expressing GPR40 and aequorin)
# Design: expressed in transfected cells; host or cells: CHO cells stably transfected with GPR40 and aequorin
# DETAILS: activation of human GPR40, CHO cells, 0.01% HSA
MEASUREMENT NAME: EC50

{"COMPOUND": "COc1ccc(F)c(-c2ccc(COc3cccc(CCC(=O)O)c3)cc2C)c1", "MEASURED": "100 to 1000 nM"}
{"COMPOUND": "COc1ccc(F)c(-c2ccc(COc3cccc(C(CC(=O)O)CC4CC4)c3)cc2C(=O)C(C)(C)C)c1 (single isomer, unassigned)", "MEASURED": "1000 to 10000 nM"}
{"COMPOUND": "COc1ccc(F)c(-c2ccc(COc3cccc(CC(C)C(=O)O)c3)cc2C2=CCCC2(C)C)c1 (single isomer, unassigned)", "MEASURED": "100 to 1000 nM"}
{"COMPOUND": "COc1ccc(F)c(-c2ccc(COc3cccc(C(CC(=O)O)C4CC4)c3)cc2C(C)C(C)(C)C)c1 (single isomer, unassigned)", "MEASURED": "10 to 100 nM"}
{"COMPOUND": "COc1ccc(F)c(-c2ccc(COc3cccc([C@@H](CC(=O)O)C4CC4)c3)cc2[C@H](F)C(C)(C)C)c1 (single isomer, unassigned) [Example 66.31]", "MEASURED": "100 to 1000 nM"}
{"COMPOUND": "COc1ccc(F)c(-c2ccc(COc3cccc([C@@H](CC(=O)O)CC4CC4)c3)cc2C2=CC(C)(C)CC(C)(C)C2)c1 (single isomer, unassigned)", "MEASURED": "100 to 1000 nM"}
{"COMPOUND": "COc1ccc(F)c(-c2ccc(COc3cccc(C(C)CC(=O)O)c3)cc2C2=CCCCC2)c1 (single isomer, unassigned)", "MEASURED": "100 to 1000 nM"}
{"COMPOUND": "COc1ccc(F)c(-c2ccc(COc3cccc(C(CC(=O)O)CC4CC4)c3F)cc2C2CCCC2(C)C)c1 (single isomer, unassigned) [Example 84.3]", "MEASURED": "100 to 1000 nM"}
{"COMPOUND": "COc1ccc(F)c(-c2ccc(COc3cccc([C@@H](CC(=O)O)CC4CC4)c3)cc2[C@H]2CCCC2(C)C)c1 (single isomer, unassigned)", "MEASURED": "10 to 100 nM"}
{"COMPOUND": "COc1ccc(F)c(-c2ccc(COc3cccc([C@@H](CC(=O)O)CC4CC4)c3)cc2CC(C)(C)C)c1 (single isomer, unassigned)", "MEASURED": "10 to 100 nM"}
{"COMPOUND": "COc1ccc(F)c(-c2ccc(COc3cccc(C(CC(=O)O)C4CC4)c3)cc2CN2CCCC[C@@H]2C)c1 (single isomer, unassigned)", "MEASURED": "1000 to 10000 nM"}
{"COMPOUND": "COc1ccc(F)c(-c2ccc(COc3cccc(C(CC(=O)O)CC4CC4)c3)cc2CC(C)C)c1 (single isomer, unassigned)", "MEASURED": "100 to 1000 nM"}
{"COMPOUND": "C=CC(C)(C)[C@@H](O)c1cc(COc2cccc([C@@H](CC(=O)O)C3CC3)c2)ccc1-c1cc(OC)ccc1F (single isomer, unassigned)", "MEASURED": "1000 to 10000 nM"}
{"COMPOUND": "COc1ccc(F)c(-c2ccc(COc3cccc([C@H](CC(=O)O)C4CC4)c3F)cc2[C@H](O)C2(C)CC2)c1 (single isomer, unassigned)", "MEASURED": "1000 to 10000 nM"}
{"COMPOUND": "COc1ccc(F)c(-c2ccc(C(C)Oc3cccc(C(C)CC(=O)O)c3)cc2C(C)(C)C)c1 (single isomer, unassigned)", "MEASURED": "1000 to 10000 nM"}
{"COMPOUND": "CCC(CC(=O)O)c1cccc(OCc2ccc(-c3cc(OC)ccc3F)c(C3=CCCC3(C)C)c2)c1F (single isomer, unassigned)", "MEASURED": "100 to 1000 nM"}
{"COMPOUND": "COc1ccc(F)c(-c2ccc(COc3cccc([C@@H](CC(=O)O)CC4CC4)c3)cc2[S+]([O-])C(C)C)c1 (single isomer, unassigned)", "MEASURED": "1000 to 10000 nM"}
{"COMPOUND": "COc1cccc(-c2ccc(COc3cccc(C(CC(=O)O)CC4CC4)c3)cc2C2CCCCCC2)c1 (single isomer, unassigned)", "MEASURED": "100 to 1000 nM"}
{"COMPOUND": "CCC[C@H](CC(=O)O)c1cccc(OCc2ccc(-c3cc(OC)ccc3F)c([C@H]3CCCC3(C)C)c2)c1 (single isomer, unassigned)", "MEASURED": "100 to 1000 nM"}
{"COMPOUND": "CCC(CC(=O)O)c1cccc(OCc2ccc(-c3cc(OC)ccc3F)c(C3CCCC3(C)C)c2)c1 (single isomer, unassigned) [Example 98.1]", "MEASURED": "100 to 1000 nM"}
{"COMPOUND": "COc1ccc(F)c(-c2ccc(COc3cccc(C(C)CC(=O)O)c3)cc2/C=C/C(C)(C)C)c1 (single isomer, unassigned)", "MEASURED": "100 to 1000 nM"}
{"COMPOUND": "COc1ccc(F)c(-c2ccc(COc3cccc(C(CC(=O)O)C4CC4)c3F)cc2C(OC)C(C)(C)C)c1 (single isomer, unassigned)", "MEASURED": "100 to 1000 nM"}
{"COMPOUND": "COc1ccc(F)c(-c2cc(F)c(COc3cccc(C(CC(=O)O)C4CC4)c3F)cc2C2=CCCC2(C)C)c1 (single isomer, unassigned)", "MEASURED": "100 to 1000 nM"}

====

Here, each record is paired with measured EC50 data.
# TARGET SYSTEM: UniProtKB O14842
# ASSAY PROCEDURE: Cell-based aequorin assay (CHO cells stably expressing GPR40 and aequorin)
# Parameters: expressed in transfected cells; host or cells: CHO cells stably transfected with GPR40 and aequorin
# DETAILS: activation of human GPR40, CHO cells, 0.01% HSA

{"COMPOUND": "COc1ccc(F)c(-c2ccc(COc3cccc([C@@H](CC(=O)O)CC4CC4)c3)cc2C(O)C(C)(C)C)c1 (single isomer, unassigned)", "EC50": "0.1 to 1 µM"}
{"COMPOUND": "COc1ccc(F)c(-c2ccc(COc3cccc([C@@H](CC(=O)O)C4CC4)c3)cc2[C@@H](OC)C(C)(C)C)c1 (single isomer, unassigned)", "EC50": "0.1 to 1 µM"}
{"COMPOUND": "CCCC(CC(=O)O)c1cccc(OCc2ccc(-c3cccc(OC)c3)c(C3CCCC3(C)C)c2)c1 (single isomer, unassigned) [Example 80.5]", "EC50": "0.1 to 1 µM"}
{"COMPOUND": "COc1ccc(F)c(-c2ccc(COc3cccc([C@H](C)CC(=O)O)c3)cc2OC2CCCCO2)c1 (single isomer, unassigned)", "EC50": "0.1 to 1 µM"}
{"COMPOUND": "COc1ccc(F)c(-c2ccc(COc3cccc(C(CC(=O)O)C4CC4)c3F)cc2C2CCCCC2(C)C)c1 (single isomer, unassigned)", "EC50": "0.1 to 1 µM"}
{"COMPOUND": "COc1ccc(F)c(-c2ccc(COc3cccc(C(CC(=O)O)C4CC4)c3F)cc2C(OC)C(C)(C)OC)c1 (single isomer, unassigned)", "EC50": "1 to 10 µM"}
{"COMPOUND": "C=CC(C)(C)[C@H](OC)c1cc(COc2cccc([C@@H](CC(=O)O)CC3CC3)c2)ccc1-c1cc(OC)ccc1F (single isomer, unassigned)", "EC50": "1 to 10 µM"}
{"COMPOUND": "COc1ccc(F)c(-c2ccc(COc3cccc([C@@H](CC(=O)O)C4CC4)c3)cc2CN2CCCCC2)c1 (single isomer, unassigned)", "EC50": "1 to 10 µM"}
{"COMPOUND": "COc1cc(-c2ccc(COc3cccc([C@@H](CC(=O)O)C4CC4)c3F)cc2[C@@H](OC)C(C)(C)C)c(F)cn1 (single isomer, unassigned)", "EC50": "0.01 to 0.1 µM"}
{"COMPOUND": "COc1ccc(F)c(-c2ccc(COc3cccc(C(CC(=O)O)C4CC4)c3F)cc2C(F)C(C)(C)C)c1 (single isomer, unassigned)", "EC50": "0.1 to 1 µM"}
{"COMPOUND": "COc1cccc(-c2ccc(COc3cccc(C(CC(=O)O)C4CC4)c3)cc2C2CCCCCC2)c1 (single isomer, unassigned)", "EC50": "0.1 to 1 µM"}

====

# EC50 per entry
# TARGET SYSTEM: GPR40 (Homo sapiens, UniProt O14842)
# Sequence (O14842 whole entry): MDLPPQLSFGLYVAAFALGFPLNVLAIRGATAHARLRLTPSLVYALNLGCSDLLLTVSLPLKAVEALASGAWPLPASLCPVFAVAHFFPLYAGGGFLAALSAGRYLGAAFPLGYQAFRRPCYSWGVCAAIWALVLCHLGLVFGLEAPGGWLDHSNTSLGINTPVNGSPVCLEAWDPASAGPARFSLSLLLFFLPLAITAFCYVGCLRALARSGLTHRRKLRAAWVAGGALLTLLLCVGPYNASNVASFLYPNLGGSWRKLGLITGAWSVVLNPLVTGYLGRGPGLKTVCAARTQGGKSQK
# ASSAY PROCEDURE: Inositol phosphate accumulation assay (A9_GPR40 cells)
# Type: cell-based
# Set-up: expressed in transfected cells; host or cells: CHO cells stably transfected with GPR40 and aequorin
# DETAILS: inositol phosphate assay, A9_GPR40 cells, 1 hour; read-out: IP3 EC50
MEASUREMENT NAME: EC50

{"COMPOUND": "COc1ccc(F)c(-c2cc(F)c(COc3cccc(C(CC(=O)O)C4CC4)c3F)cc2C2=CCCC2(C)C)c1 (single isomer, unassigned)", "MEASUREMENT NAME": "EC50", "MEASURED": "10 to 100 nM"}
{"COMPOUND": "CC[C@H](CC(=O)O)c1cccc(SCc2ccc(-c3cc(OC)ccc3F)c([C@H]3CCCC3(C)C)c2)c1 (single isomer, unassigned)", "MEASUREMENT NAME": "EC50", "MEASURED": "1000 to 10000 nM"}
{"COMPOUND": "COc1cccc(-c2ccc(COc3cccc(C(CC(=O)O)C4CCC4)c3)cc2C(C)(C)C)c1 (single isomer, unassigned)", "MEASUREMENT NAME": "EC50", "MEASURED": "10 to 100 nM"}
{"COMPOUND": "COc1ccc(F)c(-c2cc(F)c(COc3cc(F)cc(C(CC(=O)O)CC4CC4)c3)cc2C2CCCC2(C)C)c1 (single isomer, unassigned)", "MEASUREMENT NAME": "EC50", "MEASURED": "< 10 nM"}
{"COMPOUND": "COc1ccc(F)c(-c2ccc(COc3cccc([C@@H](CC(=O)O)CC4CC4)c3)cc2C(F)C(C)(C)C)c1 (single isomer, unassigned)", "MEASUREMENT NAME": "EC50", "MEASURED": "< 10 nM"}
{"COMPOUND": "COc1ccc(F)c(-c2ccc(COc3cccc([C@@H](CC(=O)O)C4CC4)c3)cc2COC(C)(C)C)c1 (single isomer, unassigned)", "MEASUREMENT NAME": "EC50", "MEASURED": "1000 to 10000 nM"}
{"COMPOUND": "COc1cccc(-c2ccc(COc3cccc(C(CC(=O)O)C4CCC4)c3)cc2C2CCCCCC2)c1 (single isomer, unassigned)", "MEASUREMENT NAME": "EC50", "MEASURED": "10 to 100 nM"}
{"COMPOUND": "COc1ccc(F)c(-c2ccc(COc3cccc(CCC(=O)O)c3)cc2OC(F)(F)F)c1", "MEASUREMENT NAME": "EC50", "MEASURED": "1000 to 10000 nM"}
{"COMPOUND": "COc1ccc(F)c(-c2ccc(COc3cccc(C(CC(=O)O)CC4CC4)c3)cc2C2CCCCC2(C)C)c1 (single isomer, unassigned)", "MEASUREMENT NAME": "EC50", "MEASURED": "< 10 nM"}
{"COMPOUND": "CCCCOc1cc(COc2cccc([C@H](CC)CC(=O)O)c2)ccc1-c1cc(OC)ccc1F (single isomer, unassigned)", "MEASUREMENT NAME": "EC50", "MEASURED": "100 to 1000 nM"}
{"COMPOUND": "CCC[C@H](CC(=O)O)c1cccc(OCc2ccc(-c3cccc(OC)c3)c(C(C)(C)C)c2)c1 (single isomer, unassigned)", "MEASUREMENT NAME": "EC50", "MEASURED": "100 to 1000 nM"}
{"COMPOUND": "COc1ccc(F)c(-c2ccc(COc3cccc([C@@H](CC(=O)O)[C@@H]4C[C@H]4C)c3)cc2C(C)(C)C)c1 (single isomer, unassigned)", "MEASUREMENT NAME": "EC50", "MEASURED": "10 to 100 nM"}
